# TEST METHOD NOTES: yeast display, Sf9 membrane polyspecificity reagent, FACS + sequencing; frameworks hold sequencing errors
TEST READOUT: polyreactivity (PSR sort gate)

1. QVQLVESGGGLVQAGGSLRLSCAASGYTFIRNGMGWYRQAPGKERDLVAAISRRGGSTYYADSVKGRFTISRDNAKNTVYLQMNRLKPEDTAVYYCAKASTERMGSWGQGTQVTVSS: high polyreactivity
2. QVQLVESGGGLVQAGGSLRLSCAASGSIFYVYAMGWYRQAPGKERELVAAITSSGDTTYYADSVKGRFTISRDNAKNTVYLQMNSLKPEDTAVYYCAKVFGPTDYLTGTFKGDYWGQGTQVTVSS: low polyreactivity
3. QVQLVESGGGLVQAGGSLRLSCAASGRTFRYYAMGWYRQAPGKERELVAAIDTSSGSTYYADSVKGRFTISRDNAKNTVYLQMNSLKPEDTAVYYCNATWWIPLIYDYWGQGTQVNVSS: low polyreactivity
4. QVQLVESGGVLVQAGGSLRLSCAASGITFGDNAMGWYRQAPGKERELVAAITTSVDSTYYADSVKGRFTISRDNAKNTVYLQMNSLKPEDTAVYYCAVAFVQFTQYDYWGQGTQVTVSS: low polyreactivity
5. QVQLVESGGGLVQAGGSLRLSCAASGSIFYYAMGWYRQAPGKERELVAAITWRGGRTYYADSVKGRFTISRDNAKNTVYLQMNSLKPEDTAVYYCNAVAPGKYNHWGQGTQVTVSS: high polyreactivity
6. QVQLVESCGGLVQAGGSLRLICAASGRTFRSYTMGWYRQAPGKERELVAAISYNCGSTYYADSVKGRFTISRDNAKNTVYLQMNSLKPEDTPVYYCAVYTIYGFYYWGQGTQVSVSS: high polyreactivity
7. QVQLVESGGGLVQAGGSLRLSCAASGITLTKNAMGWYSQAPGKERELVAGITRGSRTNYADSVKGRFTISRDNAKNTVYLQMNSLKPEDTAVYYCAASYWPYRGPVGGSKMYYWGQGTQVTVSS: high polyreactivity
8. QVQLVESGGGLVQAGGSLRLSCAASGIIFRFYARGWYRQAPGKERELVAAISSSGTRTYYADSVKGRFTISRDNAKNTVYLQMNSLKPEETAVYYCNAAYHYYDYDYWGQGTQVTVSS: high polyreactivity
9. QGQLVESGGGLFQAGGSLRLSCDDSGRTFSGYAMGWYRQAPGKEREFVAAITWSGGSTYYADSVKGRFSISRDNAKNTVYLQMNSLKPEDTAVYYCAARDYTRYGYGYWGQGTQVTVSS: high polyreactivity
10. QVQLVESGGGLVQAGGSLRLSCAASGSILYRNAMGWYRQAPGKERELVAAITYSGARTYYADSVKGRFTISRDNAKNSVYLQMNSLKPEDTAVYYCAATAAGYWYSAYDYWGQGTQVTVSS: low polyreactivity
11. QVQLVESGGGLVQAGGSLRLICAASGRIFYGYAMGWYRQAPGKEREFVAAITVSAGSTYYADSVKGRFTISRDYAKNTVYLQMNSLKPEDTAVYYCAAKRYVYPSYRFDYWGQGTQVTVSS: low polyreactivity
